Value source: PubChem BioAssay

composite z-score reference
tested on: Noggin (protein binding on small-molecule microarray); test: Noggin binders on small-molecule microarray, primary screen, biochemical, 635/667 nm fluorescence (AID 1095); conditions: 635 nm fluorescence, higher = more signal;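 further: score merges 667 nm feature fluorescence with signal to noise over triplicate slides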

smiles.data | composite z-score
CO[C@@H]1COC(=O)[C@@H]2CCCN2C(=O)[C@@H](C)COC(=O)CC=C[C@H]1C | 1.18
CCOC(=O)NN=C1C[C@@H](O)[C@@H](O)[C@@H]2[C@@H]3C(=O)N(c4cccc(Oc5ccccc5)c4)C(=O)[C@@H]3CC[C@@H]12 | 0.918
CO[C@H]1COC(=O)CC=C[C@H](C)[C@@H](OC)COC(=O)[C@@H](C)COC(=O)CC=C[C@@H]1C | 2.04
CO[C@@H]1COC(=O)[C@H](CCSC)NC(=O)CC=C[C@@H](C)COC(=O)[C@H](C)NC(=O)CC=C[C@H]1C | 0.783

---

biological target: Concanavalin-A (Canavalia ensiformis) (UniProt P02866); assay: ConA small-molecule binders, primary screen, artefact control for SMM control protein annotation, biochemical, small-molecule microarray, Alexa647 label, 635 nm (AID 1127); conditions: ConA-A647 binding fluorescence, higher = more signal;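 further: z combines 667 nm emission intensity with signal-to-noise across three replicate slides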
Sequence (P02866 whole entry, looked up): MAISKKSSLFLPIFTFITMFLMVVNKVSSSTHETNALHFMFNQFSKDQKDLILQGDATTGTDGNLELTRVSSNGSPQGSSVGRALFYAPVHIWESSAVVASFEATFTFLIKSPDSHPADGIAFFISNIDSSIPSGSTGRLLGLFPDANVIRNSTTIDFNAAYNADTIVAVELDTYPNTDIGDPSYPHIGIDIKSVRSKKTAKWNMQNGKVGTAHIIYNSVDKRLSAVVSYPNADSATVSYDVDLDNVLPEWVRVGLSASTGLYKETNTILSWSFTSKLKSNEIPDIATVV
reported.property: composite z-score

molecule | numeric.value
CCC(=O)[C@@]1(O)C(=O)N2C(=C3C(=O)OCC[C@@H]31)N(Cc1ccccc1)C(C)=C(C(=O)OC)[C@H]2c1ccccc1 | 0.602
O=C1C[C@@H](O)[C@@H](O)[C@@H]2[C@@H]3C(=O)N(C[C@@H]4CCCO4)C(=O)[C@@H]3CC[C@@H]12 | 0.852
O=c1n(Cc2cc3c(cc2Cl)OCO3)c(=O)n2n1CC[C@@H]1C(=NOC[C@@H](O)COCc3ccco3)[C@H]3O[C@H]3[C@@H](O)[C@@H]12 | 0.392
CC(C)CON=C1C[C@@H](O)[C@@H](O)[C@@H]2[C@@H]3C(=O)N(c4ccc(F)cc4F)C(=O)[C@@H]3CC[C@H]12 | 0.303
O=C1CCCC=C1C(O)CCOC(c1ccccc1)(c1ccccc1)c1ccccc1 (configuration not stated) | -0.542
Cc1ccc(S(=O)(=O)OC[C@H]2CN3[C@H](c4ccc(Br)cc4)[C@@H](C)CC[C@H]3C(=O)O2)cc1 | 0.818
COC(=O)CC=C[C@@H](C)[C@@H](C=NO[C@@H]1O[C@H](COC(C)=O)[C@@H](OC(C)=O)[C@H](OC(C)=O)[C@H]1OC(C)=O)OC | -1.33

---

biological target: Follistatin (Homo sapiens) (UniProt P19883); assay: follistatin binders on small-molecule microarrays, primary screen, biochemical, small-molecule microarray, 635/667 nm fluorescence (AID 1132); conditions: FST binding, 635 nm fluorescence, higher = more signal
Sequence (P19883 whole entry, looked up): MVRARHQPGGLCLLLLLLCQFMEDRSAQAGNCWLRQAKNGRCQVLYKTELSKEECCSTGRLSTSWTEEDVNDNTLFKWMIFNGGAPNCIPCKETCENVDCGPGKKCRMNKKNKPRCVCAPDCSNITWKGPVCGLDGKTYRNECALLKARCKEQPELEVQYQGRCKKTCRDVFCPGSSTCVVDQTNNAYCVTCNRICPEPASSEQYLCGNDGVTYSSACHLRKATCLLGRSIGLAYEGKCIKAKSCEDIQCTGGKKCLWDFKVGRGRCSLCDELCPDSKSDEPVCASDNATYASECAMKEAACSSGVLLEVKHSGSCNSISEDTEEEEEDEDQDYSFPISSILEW
Assign Satisfied whenever composite z-score does not fall below 0.7; assign Not satisfied whenever it does.

compound | assigned.category
CO[C@@H]1COC(=O)CC=C[C@@H](C)[C@H](OC)COC(=O)[C@@H](C)COC(=O)CC=C[C@H]1C | Satisfied
CO[C@H]1COC(=O)CCC[C@@H](C)[C@H](OC)COC(=O)[C@@H](C)NC(=O)CC=C[C@@H]1C | Satisfied
COc1ccc(O[C@H]2C=C[C@@H](c3ccccc3)O[C@@H]2COC(=O)CCC(C)=NOC(C)CN2CCCc3nc(C)c(C)cc32)cc1 (some centres not stated) | Not satisfied
Cc1ccc(S(=O)(=O)N[C@H]2COC(=O)CC=C[C@@H](C)COC(=O)CC=C[C@@H]2C)cc1 | Satisfied
O=C(NN=C1C[C@@H](O)[C@@H](O)[C@@H]2[C@@H]3C(=O)N(C4CCCCC4)C(=O)[C@@H]3CC[C@H]12)OCc1ccccc1 | Not satisfied
CO[C@H]1COC(=O)[C@H](C)NC(=O)CC=C[C@@H](C)[C@H](OC)COC(=O)[C@@H](OCc2ccccc2)C=C[C@@H]1C | Satisfied
CC(C)=CCCC(C)=CCON=C1C[C@@H](O)[C@@H](O)[C@@H]2[C@@H]3C(=O)N(Cc4ccccc4)C(=O)[C@@H]3CC[C@H]12 | Not satisfied

---

Overview of recorded z-score for various compounds
test: basal HepG2 mitochondrial membrane potential changes, profiling panel, cell-based, JC-1 fluorescence, 24 h, 100 nL compound (AID 1167); conditions: higher = more signal; further: test concentration not given here

compound | z-score
C[C@@H]1C=CCC(=O)OC[C@H]2O[C@@H](C=C[C@@H]2O)[C@H](C)C=CCC(=O)OC1 | 0.909
CCN1C(=O)[C@H]2[C@H]3[C@H](O)[C@H](O)CC(=NNC(=O)OCc4ccc(OC)cc4)[C@@H]3CC[C@H]2C1=O | -0.586
CCOC(=O)[C@H](CC(C)C)NC(=O)CCC1CC(OC(=O)NCc2ccc3c(c2)OCO3)CC2(CCCC(COC(=O)NCc3cccc(C(F)(F)F)c3)O2)O1 (stereo partly drawn) | 1.85
CC(C)=CCCC(C)=CCON=C1C[C@@H](O)[C@@H](O)[C@@H]2[C@@H]3C(=O)N(C(C)(C)C)C(=O)[C@@H]3CC[C@@H]12 | -0.279
CCOC(=O)C1=NO[C@]2(C=C(Br)C3(OCCCO3)[C@H]3O[C@H]32)C1 | -1.04
CCOC(=O)NN=C1C[C@@H](O)[C@@H](O)[C@@H]2[C@@H]3C(=O)N(c4cccc(Oc5ccccc5)c4)C(=O)[C@@H]3CC[C@H]12 | 1.03
CCOC(=O)[C@H](Cc1ccccc1)NC(=O)CCC1CC(OC(=O)NCCc2ccc(F)cc2)CC2(CCCC(COC(=O)NCCc3ccccc3OC)O2)O1 (stereo partly drawn) | 0.723
CC(C)CON=C1C[C@@H](O)[C@@H](O)[C@@H]2[C@@H]3C(=O)N(C4CCCCC4)C(=O)[C@@H]3CC[C@@H]12 | -1.21
CC(=O)OC[C@H]1O[C@H](CC=NO[C@H](C)c2cn([C@H](CO)Cc3ccccc3)nn2)C=C[C@@H]1OC(C)=O | -0.485
CCCCC#C[C@@H]1C=C[C@H](Oc2ccc(C(=O)OC)cc2)[C@@H](COC(=O)OCC)O1 | -0.918
CO[C@@H]1C=CCC(=O)N[C@@H](C)C(=O)OC[C@@H](OC)[C@H](C)CCCC(=O)OC[C@H]1C | -0.0819
CCOC(=O)[C@H](Cc1ccccc1)NC(=O)CCC1CC(OC(=O)NCCc2ccc(F)cc2)CC2(CCCC(COC(=O)NCCCN3CCCC3=O)O2)O1 (stereo partly drawn) | 0.668
O=C1[C@H]2[C@H]3[C@H](O)[C@H](O)CC(=NOCc4ccccc4)[C@@H]3CC[C@H]2C(=O)N1C[C@@H]1CCCO1 | -1.01
COC(=O)CC=C[C@@H](C)[C@@H](C=NO[C@@H]1O[C@H](COC(C)=O)[C@@H](OC(C)=O)[C@H](OC(C)=O)[C@H]1OC(C)=O)NS(=O)(=O)c1ccc(C)cc1 | -0.365
CC(C)CON=C1C[C@@H](O)[C@@H](O)[C@@H]2[C@@H]3C(=O)N(C4CCCCC4)C(=O)[C@@H]3CC[C@H]12 | -0.357
Cc1cc2c(nc1C)CCCCN2CC(C)ON=C[C@@H](C)[C@H](OCc1ccccc1)C(C)C (stereo partly drawn) | -1.91
COC(=O)[C@H](C)NC(=O)CCC1CC(OC(=O)NCc2ccc3c(c2)OCO3)CC2(CCCC(COC(=O)NCCc3ccccc3OC)O2)O1 (stereo partly drawn) | -1.34
CCOC(=O)[C@H](CC(C)C)NC(=O)CCC1CC(OC(=O)NCc2cccc3ccccc23)CC2(CCCC(COC(=O)NCCOC)O2)O1 (stereo partly drawn) | 1.01
CO[C@H]1COC(=O)CC=C[C@H](C)[C@@H](OC)COC(=O)[C@@H](C)COC(=O)CC=C[C@@H]1C | 0.429
COc1ccc(O[C@H]2C=C[C@@H](c3ccccc3)O[C@@H]2CON=C(C)CCN2CCc3nc(-c4ccccc4)c(-c4ccccc4)cc3C2)cc1 | 4.95
CCOC(=O)[C@H](CC(C)C)NC(=O)CCC1CC(OC(=O)NCc2ccc3c(c2)OCO3)CC2(CCCC(COC(=O)NCC3CCCCC3)O2)O1 (stereo partly drawn) | 0.498
COc1cccc([C@H]2Oc3ccc(OC)cc3C(=NOC[C@@H](O)[C@H]3O[C@@H]4OC(C)(C)O[C@@H]4[C@H]3O)[C@@H]2O)c1 | -1.27
CC(C)C[C@H](NC(=O)CCC1CC(OC(=O)NCc2cccc3ccccc23)CC2(CCCC(COC(=O)NCc3ccccc3)O2)O1)C(=O)NCC(c1ccccc1)c1ccccc1 (stereo partly drawn) | -0.341
COC(=O)[C@@H]1CC[C@@H](C)[C@H](c2ccc(Br)cc2)N1 | 0.307
COC(=O)CC=C[C@@H](C)[C@@H](C=NO[C@H](C)c1cn([C@@H]2COC[C@H]2O)nn1)NS(=O)(=O)c1ccc(C)cc1 | -0.156
CCOC(=O)[C@H](CC(C)C)NC(=O)CCC1CC(OC(=O)NCc2cccc3ccccc23)CC2(CCCC(COC(=O)NCCOc3ccccc3)O2)O1 (stereo partly drawn) | 1
C#CCCCON=C1C[C@@H](O)[C@@H](O)[C@@H]2[C@@H]3C(=O)N(C(C)(C)C)C(=O)[C@@H]3CC[C@@H]12 | -0.465
COC(=O)CC=C[C@@H](C)[C@@H](C=NOCC[C@@H]1C=C[C@H](OC(C)=O)[C@@H](COC(C)=O)O1)OC | -0.514
